Where a SMILES comes first, the peptide text is derived from it. [ ]: non-standard residue; d: D form. The star is where a group is joined. Benzoyl(4-SO2NH2) = NS(=O)(=O)c1ccc(C(=O)*)cc1; Nle = CCCC[C@H](N)C(=O)O
Entries with their measured k off, system UniProtKB P00918:
Measure Name: k off (s⁻¹)

[
  {
    "Compound": "NS(=O)(=O)c1ccc(C(=O)NCC(=O)O)cc1",
    "Measure Name": "k off",
    "Recorded Result": 0.12
  }
]

[P] NS(=O)(=O)c1ccc(C(=O)NC(Cc2ccc(Cl)cc2)C(=O)O)cc1 (stereo unspecified)
[Q] CCCC[C@H](NC(=O)CNC(=O)CNC(=O)CNC(=O)c1ccc(S(N)(=O)=O)cc1)C(=O)O ({Benzoyl(4-SO2NH2)}-GGG[Nle]-OH)
[R] CCCCC(NC(=O)c1ccc(S(N)(=O)=O)cc1)C(=O)O (stereo unspecified)
hey, can you rank those compounds up there by k off? biggest number first please Enter labels, ranked according to the request.
Q, P, R
